Read-out: Fatty Acid-Binding Protein 1 (FABP1), FABP1 (gene 2168)
Assay: LTEA_HepaRG_FABP1: Life Technologies and Expression Analysis (LTEA) Assay for Fatty Acid-Binding Protein 1 (FABP1) using HepaRG (AID 2283494)
Details: mRNA level, 48 h; actives raise or lower the signal
Method: LTEA_HepaRG is a cell based, multiplexed-readout assay that uses HepaRG, a human liver cell line, with measurements taken at 48 hours after chemical dosing on a 96-well plate.LTEA_HepaRG_FABP1 is one of 102 assay component(s) measured in the LTEA HepaRG cell culture assay. It is a marker of Steatosis.Data from the assay component LTEA_HepaRG_FABP1 was analyzed into 1 endpoint. […]
Active and inactive are the calls of the source. Rule for the calls: active = hit-call score of the fitted dose curve at least 0.9, where 1 is the maximum; inactive = score below 0.9.
Possible outcomes: T = active, F = inactive

INSERT INTO assay_data (compound, category) VALUES
  ('CC(C)CC(C)(O)C#CC(C)(O)CC(C)C (stereo not drawn)', 'F'),
  ('CCCN(C1CCN(C(=O)C2CCNCC2)CC1)[C@@H]1CCc2ccc(OC)cc2C1', 'T'),
  ('Clc1nc(Cl)c(Cl)c(Cl)c1Cl', 'F');

----------
Read-out: Interleukin-1 alpha (IL1a), IL1A (gene 3552)
Assay: BSK_BE3C_IL1a: BioMAP Diversity Plus: BE3C Assay for Interleukin-1 alpha (IL1a) Biomarker Activity (AID 2283016)
Settings: primary human bronchial epithelial cells; actives raise or lower the signal
Active and inactive are the calls of the source. Rule for the calls: active = hit-call score of the fitted dose curve at least 0.9, where 1 is the maximum; inactive = score below 0.9.
experimental_endpoint: AC50

INSERT INTO assay_data (molecule, meas_value) VALUES
  ('O=C1CCC(N2C(=O)c3ccccc3C2=O)C(=O)N1 (centres undefined)', 'inactive'),
  ('Oc1ccc2c(c1)-c1ccccc1C2', 'inactive'),
  ('COC(=O)CC(=O)OC', 'inactive'),
  ('CC(=O)OC[C@H]1O[C@@](COC(C)=O)(O[C@H]2O[C@H](COC(C)=O)[C@@H](OC(C)=O)[C@H](OC(C)=O)[C@H]2OC(C)=O)[C@@H](OC(C)=O)[C@@H]1OC(C)=O', 'inactive'),
  ('CCNc1ccccc1', 'inactive'),
  ('O=C(OC[C@H]1O[C@@H](OC(=O)c2cc(O)c(O)c(OC(=O)c3cc(O)c(O)c(O)c3)c2)[C@H](OC(=O)c2cc(O)c(O)c(OC(=O)c3cc(O)c(O)c(O)c3)c2)[C@@H](OC(=O)c2cc(O)c(O)c(OC(=O)c3cc(O)c(O)c(O)c3)c2)[C@@H]1OC(=O)c1cc(O)c(O)c(OC(=O)c2cc(O)c(O)c(O)c2)c1)c1cc(O)c(O)c(OC(=O)c2cc(O)c(O)c(O)c2)c1', '7.85 µM (active)'),
  ('CCCCCCCCO', 'inactive'),
  ('CC(C)c1cccc(C(C)C)c1N1C(=O)c2ccc(O)cc2C1=O', '20 µM (active)'),
  ('CC(=O)OCCC(C)C', 'inactive'),
  ('CCCCCCCCCCCCCCCO', 'inactive'),
  ('CN(C)c1ccc(N=NS(=O)(=O)O)cc1', 'inactive'),
  ('CCC(C)(C)C(=O)O[C@H]1C[C@@H](C)C=C2C=C[C@H](C)[C@H](CC[C@@H]3C[C@@H](O)CC(=O)O3)[C@H]21', '33.1 µM (active)'),
  ('CCCCCCc1ccc(O)cc1O', '33 µM (active)'),
  ('CC(C)CC(C)(O)C#CC(C)(O)CC(C)C (centres undefined)', 'inactive');
